Assay: Microsomal stability assay, mouse liver microsomes
Format: in vitro ADME
Conditions: mouse, liver microsomes, pH 7.4, mouse liver microsomes, 1 μM compound, 0.5 mg/mL protein, 37° C.; read-out: MLM +30/− NADPH: Clint (μL/min/mg protein)
Test Readout: microsomal CLint at 1 μM

Input line: # lookup: microsomal CLint at 1 μM of CC(C)(c1ccc(OCc2ccnnc2NS(C)(=O)=O)cc1)c1cc(Cl)c(OCCCl)c(C#N)c1
Output line: < 12 µL/min/mg

***
Input line: # lookup: microsomal CLint at 1 μM of CCS(=O)(=O)Nc1nccc(COc2ccc(C(C)(C)c3cc(Cl)c(OCCCl)c(C#N)c3)cc2)n1
Output line: < 12 µL/min/mg

Input line: # lookup: microsomal CLint at 1 μM of CC(C)(c1cc(Cl)c(OCCCl)c(Cl)c1)c1ccc(OCc2ocnc2S(C)(=O)=O)c(C#N)c1
Output line: 12 to 48 µL/min/mg

Input line: # lookup: microsomal CLint at 1 μM of CC(C)(c1ccc(OCc2cnc(S(C)(=O)=O)o2)cc1)c1cc(Cl)c(OCCCl)c(Cl)c1
Output line: ≥ 48 µL/min/mg
